targetOrSystem: topoisomerase I (Homo sapiens)
Sequence (P11387 2-765): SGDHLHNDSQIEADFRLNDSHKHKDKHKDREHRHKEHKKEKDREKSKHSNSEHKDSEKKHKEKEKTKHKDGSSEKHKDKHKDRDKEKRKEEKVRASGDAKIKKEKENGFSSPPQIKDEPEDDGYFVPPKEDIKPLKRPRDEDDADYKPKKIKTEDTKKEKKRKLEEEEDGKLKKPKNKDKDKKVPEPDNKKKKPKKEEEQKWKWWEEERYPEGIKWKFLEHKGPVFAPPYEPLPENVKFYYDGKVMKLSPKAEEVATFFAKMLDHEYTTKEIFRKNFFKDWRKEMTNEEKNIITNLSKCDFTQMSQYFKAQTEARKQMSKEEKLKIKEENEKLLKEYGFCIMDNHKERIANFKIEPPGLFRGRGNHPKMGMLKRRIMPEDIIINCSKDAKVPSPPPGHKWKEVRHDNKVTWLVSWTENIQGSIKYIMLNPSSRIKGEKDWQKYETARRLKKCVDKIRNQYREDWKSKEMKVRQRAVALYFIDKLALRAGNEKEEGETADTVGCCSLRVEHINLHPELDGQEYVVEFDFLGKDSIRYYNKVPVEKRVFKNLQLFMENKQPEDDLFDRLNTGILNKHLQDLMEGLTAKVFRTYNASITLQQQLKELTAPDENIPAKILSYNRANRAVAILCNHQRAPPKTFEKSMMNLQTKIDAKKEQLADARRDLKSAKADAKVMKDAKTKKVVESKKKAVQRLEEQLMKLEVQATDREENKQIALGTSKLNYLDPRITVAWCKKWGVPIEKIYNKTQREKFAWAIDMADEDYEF
assayExplanation: plasmid DNA relaxation assay (supercoiled pBR322, agarose gel) with commercial human topoisomerase I
reportedEndpoint: EC50

[
  {
    "compound": "O=c1[nH]c(-c2ccc(O)cc2)nc2c1Cc1c(ccc3ccccc13)O2 [CPO, chromenopyrimidinone]",
    "targetOrSystem": "topoisomerase I (Homo sapiens)",
    "measuredValue": "3.6 µM"
  }
]
